# log10(IC50) per record follows
Biological target: Cat L (UniProt P07711)
Experiment: Cathepsin enzyme inhibition assay (fluorogenic peptide substrate Z-Val-Val-Arg-AMC), Cathepsin L
Type: biochemical, human and mouse
Conditions: enzyme 1 nM, substrate 20 μM, pH 6.5; read-out: CatL IC50
Scale: log10; quantity: IC50; unit before log: µM

Some compounds with recorded log10(IC50):
- Compound: "CC(C)(C)OC(=O)N1C[C@H](S(=O)(=O)c2ccccc2Cl)C[C@H]1C(=O)NC(C#N)c1ccccc1 (some centres unmarked)"
  Study system: "Cat L (UniProt P07711)"
  log10(IC50): 0.10
- Compound: "Cc1cc(N2C[C@H](S(=O)(=O)c3ccc(F)cc3C(F)(F)F)C[C@H]2C(=O)NC2(C#N)CC2)n(C2CCC2)n1"
  Study system: "Cat L (UniProt P07711)"
  log10(IC50): 1.55
- Compound: "N#CC1(NC(=O)[C@@H]2C[C@@H](S(=O)(=O)c3ccccc3Cl)CN2C(=O)C2(CO)CC2)CC1"
  Study system: "Cat L (UniProt P07711)"
  log10(IC50): 0.90
- Compound: "CN1CCC(C(=O)N2C[C@H](S(=O)(=O)c3ccccc3C(F)(F)F)C[C@H]2C(=O)NCC#N)CC1"
  Study system: "Cat L (UniProt P07711)"
  log10(IC50): 1.40

# lookup: COCCOc1ccc(S(=O)(=O)[C@@H]2CC(C(=O)NC3(C#N)CC3)N(C(=O)C3(c4ccc(Cl)nc4)CC3)C2)c(Cl)c1 (some centres unmarked) on Cat L (UniProt P07711), log10(IC50) = -0.70

---

Target: UniProtKB P07711
Test: Cathepsin enzyme inhibition assay (fluorogenic peptide substrate Z-Val-Val-Arg-AMC), Cathepsin L
Assay type: biochemical, human and mouse
Conditions: enzyme 1 nM, substrate 20 μM, pH 6.5; read-out: CatL IC50
Counter-ions that a name gives are not always drawn.
Returns: string. Value is Satisfied if measured IC50 is below 0.3 µM, and Not satisfied if it is greater than or equal to it.

Recorded results for 5 molecules are shown here.
- Molecule: "N#CCNC(=O)[C@@H]1C[C@@H](S(=O)(=O)c2ccccc2Cl)CN1C1CCOCC1"
  Label value: "Not satisfied"
- Molecule: "CC1(C(=O)N2C[C@H](S(=O)(=O)c3ccccc3C(F)(F)F)C[C@H]2C(=O)NC2(C#N)CC2)CC1"
  Label value: "Not satisfied"
- Molecule: "N#CC1(NC(=O)[C@@H]2C[C@@H](S(=O)(=O)c3ccc(-n4ccccc4=O)cc3C(F)(F)F)CN2)CC1 [Example 31, hydrochloride]"
  Label value: "Not satisfied"
- Molecule: "N#CC1(NC(=O)[C@@H]2C[C@@H](S(=O)(=O)c3ccccc3Cl)CN2C(=O)Cc2ccc(Cl)c(F)c2)CC1"
  Label value: "Satisfied"
- Molecule: "Cc1cc(N2C[C@H](S(=O)(=O)c3ccccc3C(F)(F)F)C[C@H]2C(=O)NC2(C#N)CC2)n(C2CCCCC2)n1"
  Label value: "Not satisfied"

Would you kindly verify if IC50 of Cc1cc(N2C[C@H](S(=O)(=O)c3ccccc3Cl)C[C@H]2C(=O)NC2(C#N)CC2)n(-c2ccnc(Cl)c2)n1 is strictly less than 0.3 µM? Not satisfied

API: query returns whether the molecule falls strictly under 0.3 µM in IC50. Query: N#CC1(NC(=O)[C@@H]2C[C@@H](S(=O)(=O)c3ccccc3C(F)(F)F)CN2c2nc(Cl)ns2)CC1 Not satisfied

Identify whether the molecule N#CCNC(=O)[C@@H]1C[C@@H](S(=O)(=O)c2ccccc2Cl)CN1C1COC1 records IC50 below 0.3 µM. Not satisfied

For Cc1cc(N2C[C@H](S(=O)(=O)c3ccccc3C(F)(F)F)C[C@@H]2C(=O)NC2(C#N)CC2)n(C2CCCCC2)n1 , is the recorded IC50 below the cut-off of 0.3 µM? Not satisfied

Given N#CC1(NC(=O)[C@@H]2C[C@@H](S(=O)(=O)c3ccc(N4CCCCC4)cc3Cl)CN2)CC1 , is recorded IC50 strictly lower than 0.3 µM? Not satisfied

Does N#CC1(NC(=O)[C@@H]2C[C@@H](S(=O)(=O)c3ccc(OCC(F)(F)F)cc3Cl)CN2C(=O)C2(c3ccc(Br)cc3)OCCO2)CC1 have IC50 strictly under 0.3 µM? Satisfied

I'd appreciate it if you could check whether N#CC1(NC(=O)[C@@H]2C[C@@H](S(=O)(=O)c3ccccc3Cl)CN2)CCCCC1 [Example 46, Hydrochloride] has IC50 smaller than 0.3 µM. Not satisfied

Could you please tell me whether IC50 recorded for N#CC1(NC(=O)[C@@H]2C[C@@H](S(=O)(=O)c3ccccc3)CN2C(=O)c2ccccc2)CC1 is less than 0.3 µM? Not satisfied

Regarding CN1CCN(c2ccc(S(=O)(=O)[C@@H]3C[C@@H](C(=O)NC4(C#N)CC4)N(C(=O)C4(c5ccc(Cl)nc5)CC4)C3)c(Cl)c2)CC1 , kindly confirm whether its IC50 is beneath 0.3 µM. Satisfied

---

Target: Cathepsin S (UniProt P25774)
Assay: Cathepsin enzyme inhibition assay (fluorogenic peptide substrate Z-Val-Val-Arg-AMC), Cathepsin S
Assay type: biochemical, human and mouse
Settings: enzyme 1 nM, substrate 20 μM, pH 6.5; read-out: CatS IC50
Assign labels as follows, please: yes for IC50 below 1 nM; no for IC50 equal to or exceeding 1 nM.

Lab note: confirm whether the reported IC50 for this compound is below 1 nM, equality not counting. compound: CC(C)(C)C(=O)N1C[C@H](S(=O)(=O)c2ccc(OCC(F)(F)F)cc2C(F)(F)F)C[C@H]1C(=O)NC1(C#N)CC1 yes

Please check: IC50 for N#CC1(NC(=O)[C@@H]2C[C@@H](S(=O)(=O)c3ccccc3Cl)CN2C=O)CC1 , strictly under 1 nM or not? no

Determine whether this compound shows IC50 lower than 1 nM (ties excluded): CC(C)C(=O)N1C[C@H](S(=O)(=O)c2ccc(OCC(F)(F)F)cc2Cl)C[C@H]1C(=O)NC1(C#N)CC1 yes

Determine if Cc1cc(N2C[C@H](S(=O)(=O)c3ccccc3C(F)(F)F)C[C@H]2C(=O)NC2(C#N)CC2)n(-c2nccs2)n1 shows IC50 strictly lower than 1 nM. no

Identify whether the compound CC(=O)N1C[C@H](S(=O)(=O)c2ccccc2Cl)C[C@H]1C(=O)NC1(C#N)CC1 records IC50 below 1 nM. no

Is the reported IC50 for CN1CCN(c2ccc(S(=O)(=O)[C@@H]3CC(C(=O)NC4(C#N)CC4)N(C(=O)C4(C(F)(F)F)CC4)C3)c(Cl)c2)CC1 (stereo partly shown) strictly below 1 nM? no

---

Target: Cathepsin S (UniProt P25774)
Experiment: Cathepsin enzyme inhibition assay (fluorogenic peptide substrate Z-Val-Val-Arg-AMC), Cathepsin S
Format: biochemical, human and mouse
Details: enzyme 1 nM, substrate 20 μM, pH 6.5; read-out: CatS IC50
Friendly reminder: IC50 below 0.4 nM is 1, at or above is -1.

Answered examples (10):
- Compound: "CN1CCC[C@H]1C(=O)N1C[C@H](S(=O)(=O)c2ccccc2Cl)C[C@H]1C(=O)NC1(C#N)CC1"
  Label value: -1
- Compound: "C[C@H](Oc1ccc(S(=O)(=O)[C@@H]2C[C@@H](C(=O)NC3(C#N)CC3)N(C(=O)OC(C)(C)C)C2)c(Cl)c1)C(F)(F)F"
  Label value: -1
- Compound: "N#CC1(NC(=O)[C@@H]2C[C@@H](S(=O)(=O)c3ccc(N4CCC4)cc3Cl)CN2C(=O)C2(c3ccc(Cl)cc3)CC2)CC1"
  Label value: 1
- Compound: "N#CCNC(=O)[C@@H]1C[C@@H](S(=O)(=O)c2ccccc2Cl)CN1C(=O)C1CCCCC1"
  Label value: -1
- Compound: "CC(C)(C(=O)N1C[C@H](S(=O)(=O)c2ccccc2Cl)C[C@H]1C(=O)NC1(C#N)CC1)c1ccc(Cl)cc1"
  Label value: 1
- Compound: "Cc1cc(N2C[C@H](S(=O)(=O)c3ccccc3)C[C@H]2C(=O)NC2(C#N)CC2)n(-c2ccnc(Cl)c2)n1"
  Label value: -1
- Compound: "CC1(C(=O)N2C[C@H](S(=O)(=O)c3ccc(-c4ccnc(Cl)c4)cc3C(F)(F)F)C[C@H]2C(=O)NC2(C#N)CC2)CC1"
  Label value: 1
- Compound: "C[C@H](Oc1ccc(S(=O)(=O)[C@H]2CN[C@H](C(=O)NC3(C#N)CC3)C2)c(Cl)c1)C(F)(F)F"
  Label value: -1
- Compound: "N#CC1(NC(=O)[C@@H]2C[C@@H](S(=O)(=O)c3ccccc3C(F)(F)F)CN2c2cc(C3CC3)nn2-c2ccc(C(F)(F)F)cc2)CC1"
  Label value: -1
- Compound: "N#CC1(NC(=O)[C@@H]2C[C@@H](S(=O)(=O)c3ccccc3Cl)CN2C(=O)c2ccccc2)CC1"
  Label value: -1

Would you kindly verify if IC50 of CC(C)N1CCN(c2ccc(S(=O)(=O)[C@@H]3C[C@@H](C(=O)NC4(C#N)CC4)N(C(=O)C4(C(F)(F)F)CC4)C3)c(Cl)c2)CC1 is strictly less than 0.4 nM? 1
